Numbers sourced from patent US6958358B2.

pKi: −log10 of the molar value.
Target or system UniProtKB P25326; recorded quantity pKi.
Sequence (P25326 115-331): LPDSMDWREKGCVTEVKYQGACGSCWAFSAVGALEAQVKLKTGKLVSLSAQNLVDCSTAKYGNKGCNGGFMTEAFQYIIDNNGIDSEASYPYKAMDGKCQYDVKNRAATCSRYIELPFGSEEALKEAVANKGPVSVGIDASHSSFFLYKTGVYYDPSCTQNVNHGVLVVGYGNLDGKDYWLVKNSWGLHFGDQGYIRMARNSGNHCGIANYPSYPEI

# lookup: pKi of CC(C)(C)c1ccc(C(=O)N[C@@H](Cc2ccc(O)cc2)C(=O)N[C@]23CCC[C@H]2OCC3=O)cc1
< 4.30

# lookup: pKi of O=C(N[C@@H](CC1CCCCC1)C(=O)N[C@]12CCC[C@H]1OCC2=O)c1ccsc1
> 5.70

Proceed to the following item.
# lookup: pKi of CC(C)C[C@H](NC(=O)c1cc2ccccc2s1)C(=O)N[C@]12CCC[C@H]1OCC2=O
< 4.60

###

Sequence of the target: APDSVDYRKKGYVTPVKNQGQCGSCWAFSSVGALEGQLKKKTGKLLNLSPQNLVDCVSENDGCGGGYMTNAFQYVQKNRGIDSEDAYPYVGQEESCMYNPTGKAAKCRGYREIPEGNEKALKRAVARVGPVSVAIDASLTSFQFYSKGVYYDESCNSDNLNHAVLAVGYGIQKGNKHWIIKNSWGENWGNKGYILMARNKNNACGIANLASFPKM
Measurement type: Ki

# lookup: Ki of CC(C)(C)c1ccc(C(=O)N[C@@H](Cc2ccc(O)cc2)C(=O)N[C@]23CCC[C@H]2OCC3=O)cc1 [Example 1]
> 100 µM
